- Assay: In vivo pharmacokinetic study of HL (plasma, HPLC)
- Design: species or system CD®(SD) IGS rats
- Conditions used: CD(SD) IGS (SD), rat, plasma; PO, 30 mg kg−1, mean, n = 3; read-out: Cl_F_obs (converted)
Property measured: CL/F (mL/min/kg)
Just the number please, in mL/min/kg, no unit attached.

Input: Which CL/F value belongs to S=C(NN=C(c1ccccn1)c1ccccn1)N1CCN(c2nccs2)CC1 [HL] ?
Output: 55.6

====

- Assay: In vivo pharmacokinetic study of HL (plasma, HPLC)
- Design: species or system CD®(SD) IGS rats
- Conditions used: CD(SD) IGS (SD), rat, plasma, iv, 0.5 mg kg−1, sampling time 2.00 h
Property measured: concentration at 2 h
Number first, unit second.

Input: Please give the measured concentration at 2 h for this compound: S=C(NN=C(c1ccccn1)c1ccccn1)N1CCN(c2nccs2)CC1 [HL]
Output: 372 ng/mL

====

- Assay: In vivo pharmacokinetic study of HL (plasma, HPLC)
- Design: species or system CD®(SD) IGS rats
- Conditions used: CD(SD) IGS (SD), rat, plasma, iv, 0.5 mg kg−1, mean, n = 3
Property measured: half-life (h)
Quick reminder: number only, in h, skip the unit.

Input: Fill blank: measured half-life of the compound S=C(NN=C(c1ccccn1)c1ccccn1)N1CCN(c2nccs2)CC1 is ____.
Output: 11.9

====

- Assay: In vivo pharmacokinetic study of HL (plasma, HPLC)
- Design: species or system CD®(SD) IGS rats
- Conditions used: CD(SD) IGS (SD), rat, plasma, iv, 0.5 mg kg−1, mean, n = 3
Property measured: C0 (ng/mL)
Kindly provide the numeric value in ng/mL only, without the unit symbol.

Input: Would you kindly share the measured C0 for S=C(NN=C(c1ccccn1)c1ccccn1)N1CCN(c2nccs2)CC1 ?
Output: 858

====

- Assay: In vivo pharmacokinetic study of HL (plasma, HPLC)
- Design: species or system CD®(SD) IGS rats
- Conditions used: CD(SD) IGS (SD), rat, plasma, iv, 0.5 mg/kg, 0.5 mg kg−1, mean, n = 3
Property measured: Cmax (µg/mL)
Field format: number, assumed µg/mL, no unit text.

Input: Quick one: Cmax of S=C(NN=C(c1ccccn1)c1ccccn1)N1CCN(c2nccs2)CC1 ?
Output: 0.806

====

- Assay: In vivo pharmacokinetic study of HL (plasma, HPLC)
- Set-up: species or system CD®(SD) IGS rats
- Conditions used: CD(SD) IGS (SD), rat, plasma, iv, 0.5 mg kg−1, sampling time 1.00 h
Property measured: concentration at 1 h

Input: What value of measured concentration at 1 h is listed for S=C(NN=C(c1ccccn1)c1ccccn1)N1CCN(c2nccs2)CC1 ?
Output: 341 ng/mL

====

- Assay: In vivo pharmacokinetic study of HL (plasma, HPLC)
- Design: species or system CD®(SD) IGS rats
- Conditions used: CD(SD) IGS (SD), rat, plasma; PO, 30 mg kg−1, sampling time 0.50 h
Property measured: concentration at 0.5 h (ng/mL)
Report the value in ng/mL with no unit label.

Input: Item under review: S=C(NN=C(c1ccccn1)c1ccccn1)N1CCN(c2nccs2)CC1 . Reported concentration at 0.5 h?
Output: 242

====

- Assay: In vivo pharmacokinetic study of HL (plasma, HPLC)
- Set-up: species or system CD®(SD) IGS rats
- Conditions used: CD(SD) IGS (SD), rat, plasma, iv, 0.5 mg kg−1, sampling time 4.00 h
Property measured: concentration at 4 h (ng/mL)
Answer in ng/mL, number only, no unit symbol.

Input: Query: concentration at 4 h; subject: S=C(NN=C(c1ccccn1)c1ccccn1)N1CCN(c2nccs2)CC1 [HL]
Output: 240

====

- Assay: In vivo pharmacokinetic study of HL (plasma, HPLC)
- Set-up: species or system CD®(SD) IGS rats
- Conditions used: CD(SD) IGS (SD), rat, plasma; PO, 30 mg kg−1, mean, n = 3
Property measured: AUC(0-t) (ng·h/mL)
Give your result in ng·h/mL as a bare value.

Input: Need AUC(0-t) of S=C(NN=C(c1ccccn1)c1ccccn1)N1CCN(c2nccs2)CC1 [HL] , thanks.
Output: 5340

====

- Assay: In vivo pharmacokinetic study of HL (plasma, HPLC)
- Parameters: species or system CD®(SD) IGS rats
- Conditions used: CD(SD) IGS (SD), rat, plasma, iv, 0.5 mg/kg, 0.5 mg kg−1, mean, n = 3
Property measured: Tmax (min)
Number in min, nothing else.

Input: I would be grateful if you could share the reported Tmax for S=C(NN=C(c1ccccn1)c1ccccn1)N1CCN(c2nccs2)CC1 .
Output: 1.8

====

- Assay: In vivo pharmacokinetic study of HL (plasma, HPLC)
- Design: species or system CD®(SD) IGS rats
- Conditions used: CD(SD) IGS (SD), rat, plasma; PO, 30 mg kg−1, sampling time 1.00 h
Property measured: concentration at 1 h (ng/mL)
Record the value in ng/mL, omitting the unit from your answer.

Input: Using the record for S=C(NN=C(c1ccccn1)c1ccccn1)N1CCN(c2nccs2)CC1 , report its concentration at 1 h.
Output: 426

====

- Assay: In vivo pharmacokinetic study of HL (plasma, HPLC)
- Set-up: species or system CD®(SD) IGS rats
- Conditions used: CD(SD) IGS (SD), rat, plasma, iv, 0.5 mg kg−1, sampling time 0.03 h
- Experimental: For pharmacokinetic studies, CD®(SD) IGS rats (5−6 weeks old) were randomly divided into two groups (three for each group) for oral administration (per os, PO) or intravenous administration (i.v.) of HL with dosages of 30 mg kg^−1 and 0.5 mg kg^−1, respectively (Tables S3 and S4). The blood was then collected from the orbital sinus with a heparinized syringe at different time intervals (0.5, 1.0, 2.0, 4.0, 8.0, and 24 h for PO, and 0.03, 0.5, 1.0, 2.0, 4.0, 8.0, and 24 h for i.v.). […]
Property measured: concentration at 0.03 h
Give the number first and the unit second.

Input: Recorded concentration at 0.03 h of S=C(NN=C(c1ccccn1)c1ccccn1)N1CCN(c2nccs2)CC1 , please.
Output: 806 ng/mL

====

- Assay: In vivo pharmacokinetic study of HL (plasma, HPLC)
- Set-up: species or system CD®(SD) IGS rats
- Conditions used: CD(SD) IGS (SD), rat, plasma, iv, 0.5 mg kg−1, mean, n = 3
Property measured: MRT last

Input: What value of measured MRT last is listed for S=C(NN=C(c1ccccn1)c1ccccn1)N1CCN(c2nccs2)CC1 ?
Output: 7.85 h

====

- Assay: In vivo pharmacokinetic study of HL (plasma, HPLC)
- Set-up: species or system CD®(SD) IGS rats
- Conditions used: CD(SD) IGS (SD), rat, plasma, iv, 0.5 mg kg−1, mean, n = 3; read-out: Cl_obs (converted)
Property measured: clearance

Input: Query (compound): S=C(NN=C(c1ccccn1)c1ccccn1)N1CCN(c2nccs2)CC1 ; field requested: clearance
Output: 1.8 mL/min/kg

====

- Assay: In vivo pharmacokinetic study of HL (plasma, HPLC)
- Design: species or system CD®(SD) IGS rats
- Conditions used: CD(SD) IGS (SD), rat, plasma, iv, 0.5 mg kg−1, mean, n = 3
- Description: For pharmacokinetic studies, CD®(SD) IGS rats (5−6 weeks old) were randomly divided into two groups (three for each group) for oral administration (per os, PO) or intravenous administration (i.v.) of HL with dosages of 30 mg kg^−1 and 0.5 mg kg^−1, respectively (Tables S3 and S4). The blood was then collected from the orbital sinus with a heparinized syringe at different time intervals (0.5, 1.0, 2.0, 4.0, 8.0, and 24 h for PO, and 0.03, 0.5, 1.0, 2.0, 4.0, 8.0, and 24 h for i.v.). […]
Property measured: AUC(0-t) (ng·h/mL)
Value expressed in ng·h/mL; do not type the unit.

Input: Any idea what AUC(0-t) was measured for S=C(NN=C(c1ccccn1)c1ccccn1)N1CCN(c2nccs2)CC1 ?
Output: 4210

====

- Assay: In vivo pharmacokinetic study of HL (plasma, HPLC)
- Parameters: species or system CD®(SD) IGS rats
- Conditions used: CD(SD) IGS (SD), rat, plasma; PO, 30 mg kg−1, sampling time 24.00 h
Property measured: concentration at 24 h (ng/mL)
Kindly answer with a numeric value in ng/mL, unit omitted.

Input: Would you mind telling me what concentration at 24 h value was observed for S=C(NN=C(c1ccccn1)c1ccccn1)N1CCN(c2nccs2)CC1 ?
Output: 145

====

- Assay: In vivo pharmacokinetic study of HL (plasma, HPLC)
- Set-up: species or system CD®(SD) IGS rats
- Conditions used: CD(SD) IGS (SD), rat, plasma, po, 30 mg/kg, 30 mg kg−1, mean, n = 3
Property measured: Tmax
Answer with the figure and its unit, nothing else.

Input: Please look up its Tmax: S=C(NN=C(c1ccccn1)c1ccccn1)N1CCN(c2nccs2)CC1
Output: 1.17 h

Values compiled from paper PMC11357102.
